Every entry's value here was drawn from patent US20070086998A1.

// reported IC50, IL-2 secretion of T-Hyb 1 cells stimulated by 0401-IE transgenic APC; Fab per item
- TESTED_ON: chimeric DR-IE (human-mouse chimeric MHC class II molecule) (human; murine)
- TEST_SUMMARY: cell-based or functional assay
ASSAY_READOUT: IC50, IL-2 secretion of T-Hyb 1 cells stimulated by 0401-IE transgenic APC; Fab

{"columns": ["BINDER", "RECORDED_VALUE"],
 "data": [
  ["MS-GPC-8-27-10 (Fab) (Fab, V domains shown) VH: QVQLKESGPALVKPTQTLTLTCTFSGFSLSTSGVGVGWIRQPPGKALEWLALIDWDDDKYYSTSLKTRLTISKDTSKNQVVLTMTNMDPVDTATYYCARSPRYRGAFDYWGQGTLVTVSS VL: DIVLTQPPSVSGAPGQRVTISCSGSESNIGANYVNWYQQLPGTAPKLLIYDNNQRPSGVPDRFSGSKSGTSASLAITGLQSEDEADYYCQSYDMNVHVFGGGTKLTVLG", "7.3 nM (Fab concentration/2)"],
  ["MS-GPC-8-10-57 (Fab) (Fab, V domains shown) VH: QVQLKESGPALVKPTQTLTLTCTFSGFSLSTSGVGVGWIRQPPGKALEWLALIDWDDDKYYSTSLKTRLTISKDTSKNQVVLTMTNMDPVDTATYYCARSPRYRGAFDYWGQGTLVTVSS VL: DIVLTQPPSVSGAPGQRVTISCSGSESNIGNNYVQWYQQLPGTAPKLLIYDNNQRPSGVPDRFSGSKSGTSASLAITGLQSEDEADYYCQSYDLIRHVFGGGTKLTVLG", "2.9 nM (Fab concentration/2)"],
  ["MS-GPC-8-6-13 (Fab) (Fab, V domains shown) VH: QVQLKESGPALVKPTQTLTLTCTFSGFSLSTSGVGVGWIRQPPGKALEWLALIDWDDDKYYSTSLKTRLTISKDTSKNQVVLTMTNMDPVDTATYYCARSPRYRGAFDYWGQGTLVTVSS VL: DIVLTQPPSVSGAPGQRVTISCSGSESNIGANYVTWYQQLPGTAPKLLIYDNNQRPSGVPDRFSGSKSGTSASLAITGLQSEDEADYYCQSYDYDHYVFGGGTKLTVLG", "2.1 nM (Fab concentration/2)"],
  ["MS-GPC-8-6-27 (Fab) (Fab, V domains shown) VH: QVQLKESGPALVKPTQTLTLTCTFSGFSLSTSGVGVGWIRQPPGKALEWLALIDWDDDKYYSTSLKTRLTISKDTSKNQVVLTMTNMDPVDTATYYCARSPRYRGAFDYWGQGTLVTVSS VL: DIVLTQPPSVSGAPGQRVTISCSGSDSNIGANYVTWYQQLPGTAPKLLIYDNNQRPSGVPDRFSGSKSGTSASLAITGLQSEDEADYYCQSYDYDHYVFGGGTKLTVLG", "3 nM (Fab concentration/2)"],
  ["MS-GPC-8-Fab (Fab, V domains shown) VH: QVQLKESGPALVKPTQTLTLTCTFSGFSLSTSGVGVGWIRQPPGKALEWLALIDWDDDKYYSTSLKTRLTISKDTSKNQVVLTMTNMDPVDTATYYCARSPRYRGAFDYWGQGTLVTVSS VL: DIVLTQPPSVSGAPGQRVTISCSGSSSNIGSNYVSWYQQLPGTAPKLLIYDNNQRPSGVPDRFSGSKSGTSASLAITGLQSEDEADYYCQSYDMPQAVFGGGTKLTVLG", "110 nM (Fab concentration/2)"],
  ["MS-GPC-8-6 (Fab) (Fab, V domains shown) VH: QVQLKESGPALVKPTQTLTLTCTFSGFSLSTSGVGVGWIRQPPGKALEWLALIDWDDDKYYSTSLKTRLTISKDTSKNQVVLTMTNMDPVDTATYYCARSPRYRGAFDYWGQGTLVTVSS VL: DIVLTQPPSVSGAPGQRVTISCSGSSSNIGSNYVSWYQQLPGTAPKLLIYDNNQRPSGVPDRFSGSKSGTSASLAITGLQSEDEADYYCQSYDYDHYVFGGGTKLTVLG", "20 nM (Fab concentration/2)"]
]}
